system: NEK10; details: concentration: 1 μM, replicates: in singlicate; n = 1;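 note: KINOMEscan kinase panel screen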
Threshold check on %Inh: at or above 3% gives yes (1), strictly below gives no (0).

Solved entries:
chem_smiles=CC(=O)N1CCN(c2ccc(Nc3nccc(-c4sc(C(C)C)nc4-c4cccc(NS(=O)(=O)c5cccc(Cl)c5)c4)n3)cn2)CC1 assigned_class="no (0)"
chem_smiles=Fc1ccc(-c2ncn(C3CCNCC3)c2-c2ccnc(Oc3ccc(-c4ccccc4)cc3)n2)cc1 assigned_class="no (0)"
chem_smiles=Cn1cc(-c2ccc3c(c2)CCN3C(=O)Cc2cccc(Cl)c2)c2c(N)ncnc21 assigned_class="yes (1)"
chem_smiles=Cc1occc1-c1ncc(OC[C@@H](N)Cc2c[nH]c3ccccc23)cc1-c1ccc2[nH]nc(C)c2c1.O=C(O)C(F)(F)F assigned_class="yes (1)"
chem_smiles=O=C(O)C(F)(F)F.O=C(O)C(F)(F)F.O=c1[nH]ccc2nc(N[C@@H]3CCCNC3)nc(Nc3ccc(S(=O)(=O)N4CCOCC4)cc3)c12 assigned_class="yes (1)"

With those in mind, consider the next compound.
Reported %Inh reaches at least 3% for Cc1cccc(NC(=O)Nc2ccc(Oc3ncnc4ccn(C)c34)cc2)c1 ? no (0)
